# assay_summary: Sunitinib multiple-dose pharmacokinetics
# Type: in vivo, patients
# measurement_parameters: human, plasma, oral, Cmax, subject 1003; multiple dose (dose 14), sunitinib 50 mg daily with everolimus 30 mg weekly

compound	Cmax, ng/mL
CCN(CC)CCNC(=O)c1c(C)[nH]c(/C=C2\C(=O)Nc3ccc(F)cc32)c1C [Sunitinib, Sunitinib malate]	106

====

# assay_summary: Everolimus single-dose pharmacokinetics
# Format: in vivo, patients
# measurement_parameters: human, plasma, po

molecule	Tmax
CO[C@H]1C[C@@H]2CC[C@@H](C)[C@@](O)(O2)C(=O)C(=O)N2CCCC[C@H]2C(=O)O[C@H]([C@H](C)C[C@@H]2CC[C@@H](OCCO)[C@H](OC)C2)CC(=O)[C@H](C)/C=C(\C)[C@@H](O)[C@@H](OC)C(=O)[C@H](C)C[C@H](C)/C=C/C=C/C=C/1C [Everolimus]	2 h
